Listing: self-cleavage of selected variants
B1: HDV Ribozyme (parent)
chain: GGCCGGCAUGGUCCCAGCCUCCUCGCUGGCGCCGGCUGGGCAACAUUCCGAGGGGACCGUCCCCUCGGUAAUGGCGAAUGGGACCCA

variants of: B1; assay: self-cleavage, relative activity (ratio to wild type); higher = more cleavage; co-transcriptional

| Construct Sequence | self-cleavage |
| --- | --- |
| GGCCGGCAUGGUCCCAGCCUCCUCGCUGCCGCCGGCUGGGCAACAUUCCGAGGGGACCGUCCCCUCGGUAAUGGCGAAUGGGACCCA | 0.1 |
| GGCCGGCAUGGUCCCAGCCUCCUCGCUGGCGCCGGCUGGGCAACAUUCCGAGGGGACCGUCACCUCGGUAAUGGCGAAUGGGACCCC | 0.946 |
| GGCCGGCGUGGUCCCAGCCUCCUCGCUUGCGCCGGCUGGGCAACAUUCCGAGGGGACCGUCCCCUCGGUAAUGGCGAAUGGGACCCA | 0.185 |
| GGCCGGCAUGGGCCCAGCCUCCUCGCUGGCGCCGGCUGGGCAACAUUCCGAGGGGACCGUCCCCUCCGUAAUGGCGAAUGGGACCCA | 0.962 |
| UGCCGGCAUGGUCCCAGCCUCGUCGCUGGCGCCGGCUGGGCAACAUUCCGAGGGGACCGUCCCCUCGGUAAUGGCGAAUGGGACCCA | 0.214 |
| GGCCGGCAUGGUCCCAGCCUCCUGCCUGGCGCCGGCUGGGCAACAUUCCGAGGGGACCGUCCCCUCGGUAAUGGCGAAUGGGACCCA | 0.145 |
| GGCCGGCAUGGUCACAGCCUCCUCGCUGGCGCCGGCUGGGCAACAUUCCGAGGGAACCGUCCCCUCGGUAAUGGCGAAUGGGACCCA | 0.814 |
| GGCCGGCAUGGUCCCAGCCUCCUCGCUGGGGCCGGCUGGGCAACAUUCCGAGGGGACCGUGCCCUCGGUAAUGGCGAAUGGGACCCA | 0.157 |

For reference, reported self-cleavage for GGCCGGCAUGGUCCCAGCCUCCUCACUGACGCCGGCUGGGCAACAUUCCGAGGGGACCGUCCCCUCGGUAAUGGCGAAUGGGACCCA stands at 0.0567

For reference, reported self-cleavage for GGCCGGCAUGGUGCCAGCCUCCUCGCUGGAGCCGGCUGGGCAACAUUCCGAGGGGACCGUCCCCUCGGUAAUGGCGAAUGGGACCCA stands at 0.0978

For reference, reported self-cleavage for GGCCGGCAUGGUCCCAGCCUCAUCGCUGGCGCCGGCUGGGCAACAUUCCGAGGGGACCGUCCCCUCGAUAAUGGCGAAUGGGACCCA stands at 0.298

Ref: the RNAGym collection of RNA variant scans (doi:10.7554/elife.80360)
